Molecular target: T1, recombinant human EphB4 (rhEphB4) (human, UniProt P54760 16-539, limits assumed)
T1 construct: Bought protein; also called purified EphB4; immobilized EphB4
T1 sequence (looked up): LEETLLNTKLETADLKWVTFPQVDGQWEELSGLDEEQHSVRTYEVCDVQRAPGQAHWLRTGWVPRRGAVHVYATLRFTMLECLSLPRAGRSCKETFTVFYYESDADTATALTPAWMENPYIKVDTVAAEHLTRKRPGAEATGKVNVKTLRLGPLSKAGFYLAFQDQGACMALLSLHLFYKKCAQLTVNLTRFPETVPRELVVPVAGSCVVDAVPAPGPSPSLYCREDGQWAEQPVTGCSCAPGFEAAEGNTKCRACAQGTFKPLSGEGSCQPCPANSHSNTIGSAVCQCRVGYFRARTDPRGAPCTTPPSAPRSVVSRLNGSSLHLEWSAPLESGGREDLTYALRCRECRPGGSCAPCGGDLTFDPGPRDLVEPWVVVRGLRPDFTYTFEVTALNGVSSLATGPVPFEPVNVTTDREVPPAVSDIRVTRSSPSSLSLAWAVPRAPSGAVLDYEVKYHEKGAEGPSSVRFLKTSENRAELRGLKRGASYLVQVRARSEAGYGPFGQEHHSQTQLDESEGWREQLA
Assay: SPR (BIACore), peptide 1.6-800 nM injected over immobilized rhEphB4
result-type: Kd (µM)
One number for each entry, in µM.

YLFSPNGPIARAW (also called TNYL-RAW truncated of N-terminus Thr-Asn (P1-P2)) | 0.0052

// input: 3 binders below; output: Kd for each
1. NYLFSPNGPIARAW (also called TNYL-RAW truncated of N-terminus Thr-P1)
2. TNYLFSPNGPIARA (also called TNYL-RAW truncated of C-terminus Trp-P15) [B4-008, TNYLFSPNGPIARA]
3. TNYLFSPNGPIAR (also called TNYL-RAW truncated of C-terminus Ala-Trp (P14-P15))

1. 0.0042
2. 0.06
3. 0.192
